subject-of-test: T1, hRGMa-His (human, UniProt Q96B86 48-422, limits assumed)
T1 construct: not shown: His tag
T1 sequence: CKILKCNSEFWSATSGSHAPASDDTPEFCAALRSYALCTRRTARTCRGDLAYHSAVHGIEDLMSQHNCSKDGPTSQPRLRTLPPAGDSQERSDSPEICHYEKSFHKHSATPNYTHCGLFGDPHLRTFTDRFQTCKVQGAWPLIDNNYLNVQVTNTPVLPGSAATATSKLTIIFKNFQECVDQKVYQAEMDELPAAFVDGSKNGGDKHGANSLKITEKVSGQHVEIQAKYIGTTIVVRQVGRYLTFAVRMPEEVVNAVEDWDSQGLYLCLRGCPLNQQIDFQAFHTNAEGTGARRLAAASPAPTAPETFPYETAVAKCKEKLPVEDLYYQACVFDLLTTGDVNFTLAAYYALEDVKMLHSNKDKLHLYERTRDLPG
method: BIAcore; Ab captured on CM5 chip via anti-hIgG Fc Ab, antigen injected; 1:1 Langmuir fit
metric-name: Kd (nM)
Please respond with the number in nM and leave the unit unwritten.

Q) Give the measured Kd of h5F9.AM11 (antibody, V domains shown, also called RGMA-h5F9AM; 11; RGMA-h5F9pJP302/pJP 303 hIgG1/K mut) VH: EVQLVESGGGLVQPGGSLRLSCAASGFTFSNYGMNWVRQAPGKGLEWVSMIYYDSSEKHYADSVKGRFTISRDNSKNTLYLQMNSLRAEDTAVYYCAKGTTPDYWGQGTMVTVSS VL: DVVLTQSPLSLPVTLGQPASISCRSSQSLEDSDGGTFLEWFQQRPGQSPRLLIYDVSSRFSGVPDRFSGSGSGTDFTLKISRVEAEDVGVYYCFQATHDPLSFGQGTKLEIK .
A) 0.11
